Assay: Volume of distribution in Sprague-Dawley rat at 3 mg/kg measured up to 24 hrs by LC-MS/MS analysis
Type: ADME, organism-based
Details: in vivo
reported.endpoint: Vd (L/kg)
Write the number in L/kg without appending the unit.

Which Vd reading was recorded for the molecule C[C@H]1CNC(=O)c2cnn3ccc(nc23)N[C@H](C)c2cc(F)ccc2O1 ?
1.1

Sample C[C@@H]1CCc2ncc(F)cc2[C@H]2CCCN2c2ccn3ncc(c3n2)C(=O)N1 — what was its Vd?
0.5

* * *

Tested on: BaF3
Assay: Cytotoxicity against mouse BaF3 cells transfected with TrKA G667A mutant assessed as reduction in cell viability by MTT assay
Type: functional, cell-based
As shown below, each of these molecules has a reported pIC50 value.
By convention, pIC50 is the negative base-10 log of a molar concentration.

- input.smiles: "C[C@@H]1CCc2ncc(F)cc2[C@H]2CCCN2c2ccn3ncc(c3n2)C(=O)N1"
  reported.endpoint: "pIC50"
  obs.value: 7.61

--- query ---
Look at this molecule and give its reported pIC50. O=C1NC2(CC2)COc2ncc(F)cc2[C@H]2COCCN2c2ccn3ncc1c3n2
9.10

* * *

Assay: Metabolic stability in human liver microsomes assessed as intrinsic clearance at 1 uM by LC-MS/MS analysis
Assay type: ADME, Microsome
Conditions: read-out: CLH
reported.endpoint: CLint scaled at 1 µM (mL/min/kg)
Response body: numeric value in mL/min/kg, unit text excluded.

Reported CLint scaled at 1 µM, compound O=C1NC2(CC2)COc2ncc(F)cc2[C@H]2CCCCN2c2ccn3ncc1c3n2 : ____
242

If you can, please state the reported CLint scaled at 1 µM value of C[C@H]1CNC(=O)c2cnn3ccc(nc23)N[C@H](C)c2cc(F)ccc2O1 .
29

Look up CLint scaled at 1 µM for this compound: C[C@@H]1CCc2ncc(F)cc2[C@H]2CCCN2c2ccn3ncc(c3n2)C(=O)N1
76

Find the recorded CLint scaled at 1 µM belonging to O=C1NC2(CC2)COc2ncc(F)cc2[C@H]2CNCCN2c2ccn3ncc1c3n2 and report it.
43

Which measured CLint scaled at 1 µM value corresponds to O=C1NC2(CC2)COc2ncc(F)cc2[C@H]2COCCN2c2ccn3ncc1c3n2 ?
17.7

* * *

Test: Tmax in Sprague-Dawley rat at 10 mg/kg, po measured up to 24 hrs by LC-MS analysis
Format: ADME, organism-based
Settings: in vivo
reported.endpoint: Tmax (min)
Please reply with the bare figure in min and do not write the unit itself.

- input.smiles: "C[C@H]1CNC(=O)c2cnn3ccc(nc23)N[C@H](C)c2cc(F)ccc2O1"
  Tmax [min]: 48

In the following, a different compound is considered.
Please look up its Tmax: C[C@@H]1CCc2ncc(F)cc2[C@H]2CCCN2c2ccn3ncc(c3n2)C(=O)N1
24

* * *

Assay: Cmax in female Sprague-Dawley rat at 10 mg/kg, po measured up to 24 hrs by LC-MS/MS analysis
Type: ADME, organism-based
Set-up: route oral, dose 10 mg/kg, time <=24
Details: in vivo
reported.endpoint: Cmax (µM)
Number only, in µM; omit the unit.

Need Cmax, item O=C1NC2(CC2)COc2ncc(F)cc2[C@H]2COCCN2c2ccn3ncc1c3n2
6.63

* * *

Experiment: Clearance in female Sprague-Dawley rat at 2 mg/kg, iv measured up to 24 hrs by LC/MS/MS analysis
Type: ADME, organism-based
Conditions: in vivo
reported.endpoint: clearance
Respond with the figure and its unit, in that order.

Reported clearance, compound O=C1NC2(CC2)COc2ncc(F)cc2[C@H]2COCCN2c2ccn3ncc1c3n2 : ____
8.19 mL/min/kg

* * *

Assay: Metabolic stability in dog liver microsomes assessed as intrinsic clearance at 1 uM by LC-MS/MS analysis
Assay type: ADME, Canis lupus familiaris, Microsome
Settings: read-out: CLH
reported.endpoint: CLint scaled at 1 µM (mL/min/kg)
Numbers only; they are read as mL/min/kg.

- compound: "O=C1NC2(CC2)COc2ncc(F)cc2[C@H]2CNCCN2c2ccn3ncc1c3n2"
  CLint scaled at 1 µM [mL/min/kg]: 74
- compound: "C[C@H]1CNC(=O)c2cnn3ccc(nc23)N[C@H](C)c2cc(F)ccc2O1 [REPOTRECTINIB]"
  CLint scaled at 1 µM [mL/min/kg]: 21
- compound: "C[C@@H]1CCc2ncc(F)cc2[C@H]2CCCN2c2ccn3ncc(c3n2)C(=O)N1 [SELITRECTINIB]"
  CLint scaled at 1 µM [mL/min/kg]: 38

// lookup CLint scaled at 1 µM for O=C1NC2(CC2)COc2ncc(F)cc2[C@H]2CCCCN2c2ccn3ncc1c3n2
268

* * *

Assay: C0 in male Sprague-Dawley rat at 2 mg/kg, iv measured up to 24 hrs by LC/MS/MS analysis
Type: ADME, organism-based
Conditions: in vivo
reported.endpoint: C0 at 24 h (µM)
Output spec: scalar in µM, unitless text.

Look up C0 at 24 h: O=C1NC2(CC2)COc2ncc(F)cc2[C@H]2COCCN2c2ccn3ncc1c3n2
4.12

* * *

Assay: AUC (0 to t) in male Sprague-Dawley rat at 10 mg/kg, po measured up to 24 hrs by LC-MS/MS analysis
Format: ADME, organism-based
Design: route oral, dose 10 mg/kg, time <=24
Conditions: in vivo
reported.endpoint: AUC(0-t) at 24 h (µM·h)
Numeric only. Scale: µM·h

If you can, please state the reported AUC(0-t) at 24 h value of O=C1NC2(CC2)COc2ncc(F)cc2[C@H]2COCCN2c2ccn3ncc1c3n2 .
11.7

* * *

Assay: Tmax in male Sprague-Dawley rat at 10 mg/kg, po measured up to 24 hrs by LC-MS analysis
Type: ADME, organism-based
Conditions: in vivo
reported.endpoint: Tmax (min)
Express your answer in min, writing the number without its unit.

Suppose we examine the molecule O=C1NC2(CC2)COc2ncc(F)cc2[C@H]2COCCN2c2ccn3ncc1c3n2 ; what Tmax value has been reported?
40

* * *

Assay: Clearance in male Sprague-Dawley rat at 2 mg/kg, iv measured up to 24 hrs by LC/MS/MS analysis
Format: ADME, organism-based
Details: in vivo
reported.endpoint: clearance (mL/min/kg)
// return numeric value only (unit: mL/min/kg, not printed)

Requested field: clearance. Item: O=C1NC2(CC2)COc2ncc(F)cc2[C@H]2COCCN2c2ccn3ncc1c3n2
19.3

* * *

Target: High affinity nerve growth factor receptor (Homo sapiens, UniProt P04629)
Sequence (P04629 whole entry): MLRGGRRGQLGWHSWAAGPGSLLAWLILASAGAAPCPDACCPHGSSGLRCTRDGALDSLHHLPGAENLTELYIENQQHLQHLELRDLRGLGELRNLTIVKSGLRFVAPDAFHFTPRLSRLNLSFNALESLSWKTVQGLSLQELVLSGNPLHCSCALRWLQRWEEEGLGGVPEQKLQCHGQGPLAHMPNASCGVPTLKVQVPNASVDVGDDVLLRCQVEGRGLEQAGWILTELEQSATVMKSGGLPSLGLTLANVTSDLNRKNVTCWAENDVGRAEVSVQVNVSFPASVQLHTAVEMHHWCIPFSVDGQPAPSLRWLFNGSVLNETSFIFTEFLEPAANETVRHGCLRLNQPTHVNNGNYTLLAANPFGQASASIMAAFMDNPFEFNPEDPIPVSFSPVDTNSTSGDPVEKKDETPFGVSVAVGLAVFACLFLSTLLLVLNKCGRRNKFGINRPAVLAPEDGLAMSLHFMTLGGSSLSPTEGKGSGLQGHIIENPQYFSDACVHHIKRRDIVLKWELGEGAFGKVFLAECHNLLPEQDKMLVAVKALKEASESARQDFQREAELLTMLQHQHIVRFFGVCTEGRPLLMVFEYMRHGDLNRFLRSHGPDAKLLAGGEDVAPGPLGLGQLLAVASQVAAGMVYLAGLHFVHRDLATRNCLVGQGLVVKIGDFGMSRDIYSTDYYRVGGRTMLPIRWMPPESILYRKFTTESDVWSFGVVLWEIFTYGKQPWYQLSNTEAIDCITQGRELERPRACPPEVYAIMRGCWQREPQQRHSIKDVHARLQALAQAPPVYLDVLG
IC50 for assorted compounds

Guide cases for IC50, answers given:
- compound: "C[C@H]1Nc2ccn3ncc(c3n2)C(=O)N2CCN(CC2)c2ccc(F)cc21"
  obs.value: "> 1 µM"
- compound: "O=C1NC2(CC2)COc2ncc(F)cc2[C@H]2COCCN2c2ccn3ncc1c3n2"
  obs.value: "0.0024 µM"
- compound: "C[C@@H]1COc2ncc(F)cc2C23CC2CCN3c2ccn3ncc(c3n2)C(=O)N1 (some centres undefined)"
  obs.value: "0.0675 µM"

# evaluate next
Name the recorded IC50 for C[C@H]1CNS(=O)(=O)c2cnn3ccc(nc23)N[C@H](C)c2cc(F)ccc2O1 .
> 1 µM

* * *

Molecular target: Cytochrome P450 2C19 (Homo sapiens, UniProt P33261)
Sequence (P33261 whole entry): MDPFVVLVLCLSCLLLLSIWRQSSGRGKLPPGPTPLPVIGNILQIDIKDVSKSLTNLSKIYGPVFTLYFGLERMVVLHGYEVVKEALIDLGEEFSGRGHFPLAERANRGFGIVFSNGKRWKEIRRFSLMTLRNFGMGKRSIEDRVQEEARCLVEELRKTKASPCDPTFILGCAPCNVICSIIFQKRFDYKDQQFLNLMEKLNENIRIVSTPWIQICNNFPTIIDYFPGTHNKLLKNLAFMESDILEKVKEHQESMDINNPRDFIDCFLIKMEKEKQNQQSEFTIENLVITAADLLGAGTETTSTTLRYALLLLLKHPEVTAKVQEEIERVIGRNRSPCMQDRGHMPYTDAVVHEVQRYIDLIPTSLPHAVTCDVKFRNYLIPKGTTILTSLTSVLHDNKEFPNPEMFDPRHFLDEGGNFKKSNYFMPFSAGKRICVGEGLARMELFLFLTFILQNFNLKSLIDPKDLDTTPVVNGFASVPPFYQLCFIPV
reported.endpoint: pIC50
Answer as the number alone; pIC50 is minus log10 of concentration in mol/L.

Reported pIC50 for Cytochrome P450 2C19 (Homo sapiens, UniProt P33261), given O=C1NC2(CC2)COc2ncc(F)cc2[C@H]2COCCN2c2ccn3ncc1c3n2 ?
4.05

* * *

The following compounds are listed with their measured CLint scaled at 1 µM values.
Assay: Metabolic stability in mouse liver microsomes assessed as intrinsic clearance at 1 uM by LC-MS/MS analysis
Format: ADME, Microsome
Settings: read-out: CLH
Please reply with the bare figure in mL/min/kg and do not write the unit itself.

- input.smiles: "O=C1NC2(CC2)COc2ncc(F)cc2[C@H]2CCCCN2c2ccn3ncc1c3n2"
  obs.value: 1010
- input.smiles: "C[C@@H]1CCc2ncc(F)cc2[C@H]2CCCN2c2ccn3ncc(c3n2)C(=O)N1"
  obs.value: 1350
- input.smiles: "C[C@H]1CNC(=O)c2cnn3ccc(nc23)N[C@H](C)c2cc(F)ccc2O1"
  obs.value: 982
- input.smiles: "O=C1NC2(CC2)COc2ncc(F)cc2[C@H]2CNCCN2c2ccn3ncc1c3n2"
  obs.value: 342

Note: attention shifts to another entry.
Given the compound O=C1NC2(CC2)COc2ncc(F)cc2[C@H]2COCCN2c2ccn3ncc1c3n2 , what is its reported CLint scaled at 1 µM?
1500

* * *

Test: Half life in male Sprague-Dawley rat at 2 mg/kg, iv measured up to 24 hrs by LC-MS/MS analysis
Assay type: ADME, organism-based
Details: in vivo
reported.endpoint: half-life (min)
Numbers only; they are read as min.

Give its half-life value. Item: O=C1NC2(CC2)COc2ncc(F)cc2[C@H]2COCCN2c2ccn3ncc1c3n2
52.3

Data origin, for the record: ChEMBL document CHEMBL5034019
